# MEASUREMENT_TARGET: human IL-6 (human, UniProt P05231 30-212)
# Sequence (P05231 30-212 limits assumed): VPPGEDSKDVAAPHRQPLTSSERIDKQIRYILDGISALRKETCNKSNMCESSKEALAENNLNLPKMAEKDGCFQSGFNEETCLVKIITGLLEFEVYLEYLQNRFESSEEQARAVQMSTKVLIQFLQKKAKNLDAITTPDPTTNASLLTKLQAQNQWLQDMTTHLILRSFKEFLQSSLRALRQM
# TEST_SUMMARY: SPR (Biacore), supernatant antibody on Protein A chip, IL-6 flowed, 37 C
MEASURED_METRIC: Kd

Given anti-IL-6 antibody, heavy chain I51T, G66D / light chain M32L, M50D, N52S, M88Q (antibody, human IgG1, V domains shown, Human IgG1) VH: EVQLVESGGGLVQPGGSLRLSCAASGFTFSPFAMSWVRQAPGKGLEWVAKTSPGGSWTYYSDTVTDRFTFSLDTSKSTAYLQMNSLRAEDTAVYYCARQLWGYYALDIWGQGTLVTVSS VL: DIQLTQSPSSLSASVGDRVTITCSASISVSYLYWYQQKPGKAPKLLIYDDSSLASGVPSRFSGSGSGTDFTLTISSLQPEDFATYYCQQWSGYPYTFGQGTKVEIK , state its recorded Kd. 0.233 nM
